Origin of measurements: paper PMC4231793

- Experimental details: Noncompartmental pharmacokinetic analysis of whole-blood sirolimus
- Assay type: in vivo, human
- Conditions: human, whole blood, oral, 2.5 mg/m^2/day, C24 trough concentration, patients with grade 0-II aGVHD (n = 22); mean ± SD
Measurement label: concentration at 24 h (ng/mL)
Return type: number; implicit unit ng/mL.

Notebook: CO[C@H]1C[C@@H]2CC[C@@H](C)[C@@](O)(O2)C(=O)C(=O)N2CCCC[C@H]2C(=O)O[C@H]([C@H](C)C[C@@H]2CC[C@@H](O)[C@H](OC)C2)CC(=O)[C@H](C)/C=C(\C)[C@@H](O)[C@@H](OC)C(=O)[C@H](C)C[C@H](C)/C=C/C=C/C=C/1C , concentration at 24 h read as 9.4
